# credit: PubChem BioAssay (EPA / NIEHS)

Assay: CCTE_Shafer_MEA_acute_burst_number: CCTE's Neural Acute Assay for Single-Electrode Bursts, Shafer Lab (AID 2284013)
Calls of active or inactive are those of the source. How the source made its calls: active means hit-call score of the fitted dose curve at least 0.9, where 1 is the maximum; inactive means score below 0.9.
Lab note: assign the record to one of True for active, False for inactive

Below, 3 compounds whose answers are already recorded.
> print(dat)
                                   compound  assigned.class
1  CCCCC(CC)C(=O)OCCOCCOCCOC(=O)C(CC)CCCC (stereo not drawn)           False
2                Cn1c(=O)c2[nH]cnc2n(C)c1=O           False
3                                OC(CCl)CCl           False

Any idea what this test logged for `O=S(=O)(O)c1ccc(N=Nc2c(O)ccc3cc(S(=O)(=O)O)ccc23)cc1` ?
False

Any idea what this test logged for `COc1cc2c(c(OC)c1OC)-c1ccc(OC)c(=O)cc1[C@@H](NC(C)=O)CC2` ?
True

Any idea what this test logged for `C=CCc1cc(S(=O)(=O)c2ccc(O)c(CC=C)c2)ccc1O` ?
False

Any idea what this test logged for `CCCCCCCC/C=C\CCCCCCCC(=O)OC[C@@H](O)[C@H]1OC[C@H](O)[C@H]1O` ?
False

Any idea what this test logged for `CC(C)C(=O)Nc1ccc([N+](=O)[O-])c(C(F)(F)F)c1` ?
False

Any idea what this test logged for `Cc1ncc([C@@H](CCCCCCc2ccc3c(n2)NCCC3)CC(=O)O)cn1` ?
False

Any idea what this test logged for `COc1cc(C(C)C)c2c(c1)S(=O)(=O)N(COc1cc(=O)n3cccc(OCCN4CCCCC4)c3n1)C2=O` ?
False

Any idea what this test logged for `CCCc1ccccc1` ?
False

Any idea what this test logged for `OCc1ccccc1` ?
False

Any idea what this test logged for CCCCCCCC1CCC(=O)O1 (stereo not drawn) ?
False

---

Assay: Tanguay_ZF_120hpf_PE_legacy: (Legacy) Oregon State University Tanguay Lab 120 Hour Post-fertilization zebrafish Assay for Pericardial Edema (AID 2283640)
Records with an inconclusive call do not appear. The source made the active and inactive calls. The calls were made as follows: active = hit-call score of the fitted dose curve at least 0.9, where 1 is the maximum; inconclusive = response in the unintended direction; inactive = score below 0.9.
Lab note: assign the record to one of active, inactive

Below, 6 molecules whose answers are already recorded.
molecule	assigned_class
CCCCCCCCCC	inactive
CC[C@H](C)C(=O)O[C@H]1C[C@H](O)C=C2C=C[C@H](C)[C@H](CC[C@@H](O)C[C@@H](O)CC(=O)O)[C@H]21	inactive
CCN(CC)C(=S)SSC(=S)N(CC)CC	active
NC(=O)N(O)[C@@H]1COc2cc(OCc3ccccc3)ccc21	inactive
OCCNCCO	inactive
CCCOc1ccc(S(=O)(=O)N2CCN(CC)CC2)cc1-c1nc2c(CC)n(Cc3ccccn3)nc2c(=O)[nH]1	inactive

Any idea what this test logged for `O=S1(=O)CCCO1` ?
inactive

Any idea what this test logged for CC(C)CC(C)O (stereo not drawn) ?
inactive

---

Read-out: Intercellular Adhesion Molecule 1 (ICAM1), ICAM1 (gene 3383)
Test: LTEA_HepaRG_ICAM1: Life Technologies and Expression Analysis (LTEA) Assay for Intercellular Adhesion Molecule 1 (ICAM1) using HepaRG (AID 2283507)
Details: mRNA level, 48 h; actives raise or lower the signal
The source made the active and inactive calls. How the source made its calls: active means hit-call score of the fitted dose curve at least 0.9, where 1 is the maximum; inactive means score below 0.9.
Lab note: assign the record to one of active, inactive

Below, 2 compounds whose answers are already recorded.
> print(dat)
                         compound.structure  assigned.class
1  O=C(NO)C1(NS(=O)(=O)c2ccc(Oc3ccc(F)cc3)cc2)CCOCC1        inactive
2  OC[C@H]1O[C@@](CO)(O[C@H]2O[C@H](CO)[C@@H](O)[C@H](O)[C@H]2O)[C@@H](O)[C@@H]1O        inactive

Any idea what this test logged for `CCOC(N)=O` ?
inactive

Any idea what this test logged for `CCOc1ccc2[nH]cc(C(=O)NCc3ccccc3)c(=O)c2n1` ?
inactive

Any idea what this test logged for `CCN(CC)C(=S)SSC(=S)N(CC)CC` ?
inactive

Any idea what this test logged for `COS(C)(=O)=O` ?
inactive
